The measurements presented in this section are drawn from patent US10662413B2.

- system: 9°N-I DNA polymerase (Thermococcus sp., UniProt Q56366, A485L/D141A/E143A)
- Sequence (Q56366 whole entry D141A/E143A/A485L): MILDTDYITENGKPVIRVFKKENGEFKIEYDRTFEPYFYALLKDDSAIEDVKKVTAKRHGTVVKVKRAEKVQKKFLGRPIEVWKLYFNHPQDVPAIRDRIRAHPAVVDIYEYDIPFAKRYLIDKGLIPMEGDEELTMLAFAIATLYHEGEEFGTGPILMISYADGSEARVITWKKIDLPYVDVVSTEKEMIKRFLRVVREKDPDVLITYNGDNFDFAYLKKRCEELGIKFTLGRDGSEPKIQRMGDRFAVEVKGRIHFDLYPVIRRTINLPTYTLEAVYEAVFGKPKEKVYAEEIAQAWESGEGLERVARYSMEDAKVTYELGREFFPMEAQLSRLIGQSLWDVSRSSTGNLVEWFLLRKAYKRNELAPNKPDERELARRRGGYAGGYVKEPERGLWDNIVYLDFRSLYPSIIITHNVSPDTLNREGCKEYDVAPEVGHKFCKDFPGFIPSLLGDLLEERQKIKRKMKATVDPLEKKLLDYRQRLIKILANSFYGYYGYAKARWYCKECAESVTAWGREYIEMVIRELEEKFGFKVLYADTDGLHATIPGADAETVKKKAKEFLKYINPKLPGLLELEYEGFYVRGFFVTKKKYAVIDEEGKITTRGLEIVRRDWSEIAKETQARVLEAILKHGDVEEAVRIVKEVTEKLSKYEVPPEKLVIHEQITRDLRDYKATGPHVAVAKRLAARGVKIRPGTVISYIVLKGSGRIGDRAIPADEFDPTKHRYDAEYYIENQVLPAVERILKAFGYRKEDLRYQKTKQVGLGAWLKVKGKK
- protocol notes: Pre-steady state kinetic assay
- stated conditions: 30° C.
pKd: −log10 of the molar value.

compound: Nc1ncnc2c1ncn2[C@H]1C[C@H](O)[C@@H](COP(=O)(O)OP(=O)(O)OP(=O)(O)O)O1 [dATP]
system: 9°N-I DNA polymerase (Thermococcus sp., UniProt Q56366, A485L/D141A/E143A)
pKd: 5.10

====

- system: 9°N-III DNA polymerase (Thermococcus sp., UniProt Q56366, A485L/D141A/E143A/L408S/P410V/Y409A)
- Construct: 6x histidine tag (C)
- Sequence (Q56366 whole entry D141A/E143A/L408S/Y409A/P410V/A485L): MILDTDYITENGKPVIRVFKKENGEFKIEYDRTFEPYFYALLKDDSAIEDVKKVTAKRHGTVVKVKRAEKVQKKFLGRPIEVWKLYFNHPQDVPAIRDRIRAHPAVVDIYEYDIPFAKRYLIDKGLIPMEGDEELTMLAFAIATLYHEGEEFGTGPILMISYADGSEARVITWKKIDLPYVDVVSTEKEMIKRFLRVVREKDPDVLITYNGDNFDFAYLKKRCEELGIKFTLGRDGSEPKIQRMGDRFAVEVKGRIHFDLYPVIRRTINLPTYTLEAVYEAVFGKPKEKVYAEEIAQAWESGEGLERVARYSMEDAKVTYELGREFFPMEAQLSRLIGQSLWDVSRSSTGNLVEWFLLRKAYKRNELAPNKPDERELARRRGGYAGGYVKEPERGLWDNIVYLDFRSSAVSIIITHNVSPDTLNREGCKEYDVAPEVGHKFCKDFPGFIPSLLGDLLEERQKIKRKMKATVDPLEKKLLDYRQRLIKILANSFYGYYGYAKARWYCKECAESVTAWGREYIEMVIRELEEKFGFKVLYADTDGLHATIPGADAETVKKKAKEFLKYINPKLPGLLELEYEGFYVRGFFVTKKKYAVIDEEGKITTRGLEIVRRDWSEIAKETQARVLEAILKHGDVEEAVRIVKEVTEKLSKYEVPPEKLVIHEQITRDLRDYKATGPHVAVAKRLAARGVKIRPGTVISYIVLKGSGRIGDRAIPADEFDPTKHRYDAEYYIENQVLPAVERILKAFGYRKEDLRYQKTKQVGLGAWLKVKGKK
- stated conditions: PEP assay, read-out: Average IC50 ± SD
pIC50: −log10 of the molar value.

smiles structure: Nc1ncnc2c1ncn2[C@H]1C[C@H](O)[C@@H](COP(=O)(O)OP(=O)(O)OP(=O)(O)O)O1
pIC50: 7.85
